Reference source: patent US20240317841A1

Give measured % cells binding to HA for each item. Keep answers brief.
- targetOrTestSystem: H10 (Influenza A virus)
- measurementProtocol: FACS, HA on mammalian cells; 2nd only 8.7
State just the number; it will be interpreted in %.

Query: Looking for the measured % cells binding to HA of FHF11 (antibody, V domains shown) VH: QVQLQQSGPGLVKPSQTLSVTCGISGDSVSSHSAAWNWIRQSPSRGLEWLGRTYYRSKWYNDYAVSVKSRITINPDTSKNQFSLQLISVTPEDTAVYYCARVGAMTFGLLTGGMDVWGQGTTVTVSS VL: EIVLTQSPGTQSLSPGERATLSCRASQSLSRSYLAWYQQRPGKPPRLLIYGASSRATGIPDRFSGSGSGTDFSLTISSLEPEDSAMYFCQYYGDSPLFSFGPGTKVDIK , can you help?
Reply: 82

Query: Now the same for FHF11v9 (antibody, V domains shown) VH: QVQLQQSGPGLVKPSQTLSVTCGISGDSVSSYSAAWNWIRQSPSRGLEWLGRTYYRSGWYNDYAVSVKSRITINPDTSKNQFSLQLISVTPEDTAVYYCARVGAMTFGLLTGGMDVWGQGTTVTVSS VL: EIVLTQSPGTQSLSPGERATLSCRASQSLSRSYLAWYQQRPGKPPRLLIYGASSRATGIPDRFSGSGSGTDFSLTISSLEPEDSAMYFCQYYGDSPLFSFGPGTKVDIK
Reply: 79

Query: Now the same for FHF11v3 (antibody, V domains shown) VH: QVQLQQSGPGLVKPSQTLSVTCGISGDSVSSYSAAWNWIRQSPSRGLEWLGRTYYRSKWYNDYAVSVKSRITINPDTSKNQFSLQLISVTPEDTAVYYCARVGAMTFGLLTGGMDVWGQGTTVTVSS VL: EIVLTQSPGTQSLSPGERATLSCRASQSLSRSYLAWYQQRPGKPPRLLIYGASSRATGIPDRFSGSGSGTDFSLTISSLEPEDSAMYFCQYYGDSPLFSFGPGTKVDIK
Reply: 77

Query: Now the same for FHF11v6 (antibody, V domains shown) VH: QVQLQQSGPGLVKPSQTLSVTCGISGDSVSSHSAAWNWIRQSPSRGLEWLGRTYYRSGWYNDYAVSVKSRITINPDTSKNQFSLQLISVTPEDTAVYYCARVGAMTFGLLTGGMDVWGQGTTVTVSS VL: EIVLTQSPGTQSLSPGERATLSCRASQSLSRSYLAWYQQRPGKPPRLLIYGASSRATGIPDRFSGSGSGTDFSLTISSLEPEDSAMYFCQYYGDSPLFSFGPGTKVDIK
Reply: 82
